Test system: HCT-116 colon
Assay: NCI tumour cell line growth inhibition, 48 h; in the data active = GI50 below about 0.43 µM; inactive = the rest
Select the correct class. Options are YES = active, NO = inactive and nothing else.

Check out these entries, answers already filled in.
Problem: What outcome does the record of this test show for CC(C)[C@@]12C[C@@H](OC(=O)C3CO3)[C@@](C)(O1)[C@@H]1CC[C@@H](C)[C@H]1[C@@H]2OC(=O)/C=C/c1ccccc1 (some centres undefined) ?
Solution: NO

Problem: Please do the same for COc1cc2c(/C=C3\C(=O)N(C)c4ccccc43)c[nH]c2cc1C as well.
Solution: YES

Problem: // query: COc1ccc(Sc2[nH]c(C=O)c3ccccc23)cc1
Solution: NO

Problem: For CCn1nc(C2CCN(C(=O)CCO)CC2)nc1-c1cnc(N)c(-c2nnc(C(C)(C)C)o2)n1 then?
Solution: NO

Problem: Do the same for CC[C@@]1(O)CC(OC2CC(N3CCOCC3)C(O)C(C)O2)c2c(O)c3c(c(O)c2[C@H]1O)C(=O)c1cccc(O)c1C3=O (some centres undefined) please
Solution: YES

Further cases:
Problem: Identify the outcome logged in this assay for the compound shown: COc1ccc(OC)c(N2CC(O)=C(c3nc4ccccc4s3)C2=N)c1
Solution: NO

Problem: Another: COc1cc(-n2cc(-c3ccc(Cl)cc3)n(-c3ccccc3)c2=O)cc(OC)c1OC
Solution: NO

Problem: And the next one, Cc1cccc2c(=O)c3c(sc12)c(NCCCNCCO)nc1ccccc13 ?
Solution: NO

Problem: Check CCCCCN(CCCCC)CCC[C@@H](C)[C@H]1CC[C@H]2[C@@H]3[C@H](OCCCN)C[C@@H]4C[C@H](OCCCN)CC[C@]4(C)[C@H]3C[C@H](OCCCN)[C@]12C too.
Solution: NO
